Each item that follows carries a reported pIC50.
Target: DNA III Polymerase E (Escherichia coli)
Sequence (P10443 whole entry): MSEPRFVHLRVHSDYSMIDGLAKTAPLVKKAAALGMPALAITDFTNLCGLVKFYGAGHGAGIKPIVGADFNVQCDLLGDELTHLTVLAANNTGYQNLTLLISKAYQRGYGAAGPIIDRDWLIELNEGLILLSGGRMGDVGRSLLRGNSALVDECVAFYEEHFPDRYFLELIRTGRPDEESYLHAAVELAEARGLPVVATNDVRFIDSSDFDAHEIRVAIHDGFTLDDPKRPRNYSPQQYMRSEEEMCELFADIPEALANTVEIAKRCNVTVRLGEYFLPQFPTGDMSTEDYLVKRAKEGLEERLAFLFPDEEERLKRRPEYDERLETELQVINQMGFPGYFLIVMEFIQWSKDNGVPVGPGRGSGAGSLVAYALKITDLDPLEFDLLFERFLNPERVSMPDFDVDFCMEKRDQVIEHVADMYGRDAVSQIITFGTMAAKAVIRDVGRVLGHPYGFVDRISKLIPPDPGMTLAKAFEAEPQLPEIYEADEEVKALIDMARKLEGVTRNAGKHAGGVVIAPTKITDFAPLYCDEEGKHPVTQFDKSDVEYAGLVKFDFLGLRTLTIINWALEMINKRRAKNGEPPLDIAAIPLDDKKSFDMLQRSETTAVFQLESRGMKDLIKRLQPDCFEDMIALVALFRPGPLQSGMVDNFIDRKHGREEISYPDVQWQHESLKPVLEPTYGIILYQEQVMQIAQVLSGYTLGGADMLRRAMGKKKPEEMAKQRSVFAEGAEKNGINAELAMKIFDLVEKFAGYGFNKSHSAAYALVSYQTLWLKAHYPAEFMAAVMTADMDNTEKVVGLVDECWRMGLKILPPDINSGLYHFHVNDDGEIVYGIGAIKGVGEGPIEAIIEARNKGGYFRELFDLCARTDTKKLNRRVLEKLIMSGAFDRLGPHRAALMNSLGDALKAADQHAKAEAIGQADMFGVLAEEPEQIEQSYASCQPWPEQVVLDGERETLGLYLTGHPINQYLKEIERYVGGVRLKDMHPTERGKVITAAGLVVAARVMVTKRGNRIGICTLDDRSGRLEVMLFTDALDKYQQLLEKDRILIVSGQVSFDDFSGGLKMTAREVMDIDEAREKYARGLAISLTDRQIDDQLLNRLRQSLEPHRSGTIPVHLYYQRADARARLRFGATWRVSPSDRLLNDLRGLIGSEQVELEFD
Test: In vitro activity against DNA III Polymerase E, E. coli
Type: biochemical
Details: DNA polymerase III, E. coli; read-out: IC50 semiquantitative scoring, E. coli
pIC50: −log10 of the molar value.

Asked: For the record COC[C@@H]1[C@@H](O)[C@@H]2[C@H]3CC[C@@H]4[C@@H](COC)C(=O)O[C@H]([C@H](O)COC)[C@H](C)/C=C(\C)[C@@]24O[C@H]3[C@@H]1OC(=O)c1ccc[nH]1 , what value of pIC50 is listed for DNA III Polymerase E (Escherichia coli)?
Given back: < 4.76

Asked: Now this one: CO[C@H]1C[C@H]2C=C[C@H]3[C@H]4O[C@]2(/C(C)=C/[C@@H](C)[C@@H]([C@@H](C)O)OC1=O)[C@@H]3[C@H](O)[C@@H](C)[C@H]4O [Nodusmicin, reference compound]
Given back: 4.63 to 5.63

More entries:
Asked: Recorded pIC50 for COC[C@@H]1[C@@H](O)[C@@H]2[C@H]3C=C[C@@H]4[C@@H](COC)C(=O)O[C@H]([C@H](O)COC)[C@H](C)/C=C(\C)[C@@]24O[C@H]3[C@@H]1OC(=O)c1ccsc1 with DNA III Polymerase E (Escherichia coli), please?
Given back: < 4.77

Asked: How about COC[C@@H]1[C@@H](O)[C@@H]2[C@H]3C=C[C@@H]4[C@@H](COC)C(=O)O[C@H]([C@H](O)COC)[C@H](C)/C=C(\C)[C@@]24O[C@H]3[C@@H]1OC(=O)c1ccc[nH]1 ?
Given back: 4.76 to 5.76

Asked: Another molecule to look at: COCC[C@H]1OC(=O)[C@H](COC)[C@H]2C=C[C@H]3[C@H]4O[C@]2(/C(C)=C/[C@H]1C)[C@@H]3[C@H](O)[C@@H](COC)[C@H]4O
Given back: < 4.67

Asked: Thanks! And COC[C@@H]1[C@@H](O)[C@@H]2[C@H]3C=C[C@@H]4[C@@H](COC)C(=O)O[C@H]([C@H](O)COC)[C@H](C)/C=C(\C)[C@@]24O[C@H]3[C@@H]1OC(=O)c1cnco1 ?
Given back: < 4.76

Asked: Repeat for the following molecule: COC[C@@H](O)[C@H]1OC(=O)[C@H](COC)[C@H]2C=C[C@H]3[C@H]4O[C@]2(/C(C)=C/[C@H]1C)[C@@H]3[C@H](O)[C@@H](C)[C@H]4OC(=O)c1ccc[nH]1
Given back: 4.74 to 5.74

Asked: Also check COC[C@H]1[C@@H](O)[C@@H]2O[C@@]34/C(C)=C/[C@@H](C)[C@@H]([C@H](O)COC)OC(=O)[C@H](COC)[C@H]3C=C[C@@H]2[C@H]4[C@@H]1O [Branimycin, reference compound]
Given back: 4.68 to 5.68

====

Target: DNA III Polymerase E (Escherichia coli)
Test: In vitro activity against DNA III Polymerase E, E. coli
Format: biochemical
pIC50: −log10 of the molar value.
The entries below come with measured pIC50 values attached.

Please review the following examples before continuing.
Asked: Request - read-out pIC50 | tested on DNA III Polymerase E (Escherichia coli) | molecule COCC[C@H]1OC(=O)[C@H](COC)[C@H]2C=C[C@H]3[C@H]4O[C@]2(/C(C)=C/[C@H]1C)[C@@H]3[C@H](O)[C@@H](COC)[C@H]4OC(=O)c1ccc[nH]1
Given back: < 4.75

Asked: How about this molecule: COC[C@@H]1[C@@H](O)[C@@H]2[C@H]3C=C[C@@H]4[C@@H](COC)C(=O)O[C@H]([C@H](O)COC)[C@H](C)/C=C(\C)[C@@]24O[C@H]3[C@@H]1OC(=O)c1cc[nH]n1
Given back: < 4.76

Asked: Can you handle COC[C@H]1[C@@H](O)[C@@H]2O[C@@]34/C(C)=C/[C@@H](C)[C@@H]([C@H](O)COC)OC(=O)[C@H](COC)[C@H]3CC[C@@H]2[C@H]4[C@@H]1O [Compound 15, 4,5-Dihydro-branimycin] next?
Given back: < 4.69

Asked: Continue with COC[C@@H](O)[C@H]1OC(=O)[C@H](COC)[C@H]2C=C[C@H]3[C@H]4O[C@]2(/C(C)=C/[C@H]1C)[C@@H]3[C@H](O)[C@@H](C)[C@H]4O
Given back: 4.66 to 5.66

Alright, here's another molecule for you.
Asked: Please tell me: pIC50 of COC[C@@H](O)[C@H]1OC(=O)[C@H](COC)[C@H]2C=C[C@H]3[C@H]4O[C@]2(/C(C)=C/[C@H]1C)[C@@H]3[C@H](O)[C@@H](C)[C@H]4OC(=O)c1ccoc1 , system DNA III Polymerase E (Escherichia coli)?
Given back: 5.74 to 8.74

====

Tested on: E. coli Ec50 efflux pump KO
Experiment: microbe, parasite or virus in culture
Format: cell-based
Conditions: Escherichia coli, read-out: MIC Ec50 efflux pump KO
recorded metric: MIC (µg/mL)
Response body: numeric value in µg/mL, unit text excluded.

Asked: # MIC lookup, item CO[C@H]1C[C@H]2C=C[C@H]3[C@H]4O[C@]2(/C(C)=C/[C@@H](C)[C@@H]([C@@H](C)O)OC1=O)[C@@H]3[C@H](O)[C@@H](C)[C@H]4OC(=O)c1ccc[nH]1 [Nargenicin A1, reference compound]
Given back: 2

Asked: What do we get for COC[C@@H]1[C@@H](O)[C@@H]2[C@H]3C=C[C@@H]4C[C@H](O)C(=O)O[C@H]([C@H](O)COC)[C@H](C)/C=C(\C)[C@@]24O[C@H]3[C@@H]1OC(=O)c1ccc[nH]1 [Nargenicin B1, reference compound] ?
Given back: 16

More entries:
Asked: Given the compound COCC(=NO)[C@H]1OC(=O)[C@H](COC)[C@H]2C=C[C@H]3[C@H]4O[C@]2(/C(C)=C/[C@H]1C)[C@@H]3[C@H](O)[C@@H](COC)[C@H]4OC(=O)c1cc(F)c[nH]1 [Compound 40] , what is its reported MIC?
Given back: 16

Asked: Now the compound COCC(=NOC(C)=O)[C@H]1OC(=O)[C@H](COC)[C@H]2C=C[C@H]3[C@H]4O[C@]2(/C(C)=C/[C@H]1C)[C@@H]3[C@H](O)[C@@H](COC)[C@H]4OC(=O)c1ccc[nH]1 [Compound 29]
Given back: 32

Asked: Param item: COC[C@@H]1[C@@H](O)[C@@H]2[C@H]3C=C[C@@H]4[C@@H](COC)C(=O)O[C@H]([C@H](O)COC)[C@H](C)/C=C(\C)[C@@]24O[C@H]3[C@@H]1OC(=O)c1ccc[nH]1 [Compound 2, 8-O-1H-pyrrole-2′-carbonylbranimycin]
Given back: 16

====

Tested on: E. coli Ec50 efflux pump KO
Experiment: microbe, parasite or virus in culture
Assay type: cell-based
Settings: Escherichia coli, read-out: MIC Ec50 efflux pump KO
recorded metric: MIC (µg/mL)
Quick reminder: number only, in µg/mL, skip the unit.

Asked: I am curious: what MIC value has been reported for COC[C@@H]1[C@@H](O)[C@@H]2[C@H]3C=C[C@@H]4[C@@H](COC)C(=O)O[C@H]([C@H](O)COC)[C@H](C)/C=C(\C)[C@@]24O[C@H]3[C@@H]1OC(=O)c1cc(C#N)c[nH]1 ?
Given back: 2

***
Asked: Consider the compound shown here: COCC(=NOC(C)=O)[C@H]1OC(=O)[C@H](COC)[C@H]2C=C[C@H]3[C@H]4O[C@]2(/C(C)=C/[C@H]1C)[C@@H]3[C@H](O)[C@@H](COC)[C@H]4OC(=O)c1cc(Cl)c[nH]1 What is its recorded MIC?
Given back: 64

Asked: Another: COC[C@@H]1[C@@H](O)[C@@H]2[C@H]3C=C[C@@H]4[C@@H](COC)C(=O)O[C@H](C(C)(O)COC)[C@H](C)/C=C(\C)[C@@]24O[C@H]3[C@@H]1OC(=O)c1ccc[nH]1 (some centres unmarked)
Given back: 1

Asked: And what about the compound COCC(=NO)[C@H]1OC(=O)[C@H](COC)[C@H]2C=C[C@H]3[C@H]4O[C@]2(/C(C)=C/[C@H]1C)[C@@H]3[C@H](O)[C@@H](COC)[C@H]4OC(=O)c1cc(Cl)c[nH]1 ?
Given back: 64

Asked: Param item: CO[C@H]1C[C@H]2C=C[C@H]3[C@H]4O[C@]2(/C(C)=C/[C@@H](C)[C@@H]([C@@H](C)O)OC1=O)[C@@H]3[C@H](O)[C@@H](C)[C@H]4O [Nodusmicin, reference compound]
Given back: 1

Asked: Queued: COC[C@H]1[C@@H](O)[C@@H]2O[C@@]34/C(C)=C/[C@@H](C)[C@@H]([C@H](O)COC)OC(=O)[C@H](COC)[C@H]3C=C[C@@H]2[C@H]4[C@@H]1O [Branimycin, reference compound]
Given back: 8

Asked: What do we get for COC[C@@H]1[C@@H](O)[C@@H]2[C@H]3C=C[C@@H]4[C@@H](COC)C(=O)O[C@H]([C@H](O)COC)[C@H](C)/C=C(\C)[C@@]24O[C@H]3[C@@H]1OC(=O)c1ccon1 ?
Given back: 64

Asked: Repeat for the following compound: COC[C@@H](O)[C@H]1OC(=O)[C@H](COC)[C@H]2C=C[C@H]3[C@H]4O[C@]2(/C(C)=C/[C@H]1C)[C@@H]3[C@H](O)[C@@H](C)[C@H]4O
Given back: 2
